- experiment.notes: In vitro stability in PBS, mouse serum, brain and liver homogenate (FAAddP, FMAddA)
- Format: in vitro ADME
- test.parameters: mouse, liver homogenate, pH 7.4, mouse liver homogenate; biphasic, after initial 45 minutes; read-out: t1/2 in liver homogenate, subsequent slower phase (converted)
measured.quantity: half-life at 70 μM (h)

[N-]=[N+]=Nc1ncnc2c1ncn2C1OC(CO)CC1F (stereo not shown)	7.74

----------
- experiment.notes: Pharmacokinetics in mouse serum after iv and oral administration of cordycepin or its azide derivative
- Type: in vivo, mice
- test.parameters: female, NIH Swiss, in vivo; mouse serum; after iv azide derivative 100 mg/kg; read-out: Cmax (maximal measured concentration) iv
measured.quantity: Cmax (ng/mL)

Nc1ncnc2c1ncn2[C@@H]1O[C@H](CO)C[C@H]1O [Cordycepin, 3′-deoxyadenosine, reference compound]	3890

----------
- experiment.notes: in vivo
- test.parameters: female, NIH-Swiss, mouse, in vivo, iv, 112 mg/kg, t½
measured.quantity: half-life (min)

O=c1[nH]cnc2c1ncn2[C@@H]1O[C@H](CO)C[C@@H]1F	31.2

----------
- experiment.notes: in vitro
- test.parameters: female, NIH Swiss, mouse, tissue homogenate
measured.quantity: half-life at 100 μg/mL (h)

[N-]=[N+]=Nc1ncnc2c1ncn2[C@@H]1O[C@H](CO)[C@@H](O)[C@@H]1O	4.9

----------
- experiment.notes: in vivo
- test.parameters: female, NIH Swiss, mouse, serum, po, 100 mg/kg
measured.quantity: bioavailability (%)

[N-]=[N+]=Nc1ncnc2c1ncn2[C@@H]1O[C@H](CO)[C@@H](O)[C@@H]1O	6.8

----------
- experiment.notes: in vivo
- test.parameters: female, NIH-Swiss, mouse, in vivo, iv, 55 mg/kg, AUC0-τ
- Method: Animal studies. […] Chromatographic separations were performed using a Hypersil ODS column 150×4.5 mm, 5 μm particle size (Alltech Associates, Deerfield, Ill.) preceded by a guard column packed with 30-40 μm pellicular Perisorb RP-18. […] Eluants were monitored at a UV wavelength of 260 nm. […] Data analysis in vivo studies. Nucleoside concentration as a function of time data were analyzed by a non-compartmental technique. […] Relative brain exposure (re) was calculated from AUCbrain/AUCserum.
measured.quantity: AUC (µM·h)

Nc1ncnc2c1ncn2[C@@H]1O[C@H](CO)C[C@@H]1F	3

----------
- experiment.notes: in vitro
- test.parameters: female, NIH Swiss, mouse, brain homogenate
measured.quantity: half-life at 100 μg/mL (h)

[N-]=[N+]=Nc1ncnc2c1ncn2[C@@H]1O[C@H](CO)[C@@H](O)[C@@H]1O [Compound 6-AAP, 9-(β-D-arabinofuranosyl)-6-azidopurine]	7.29

----------
- experiment.notes: Pharmacokinetics in mouse serum after iv and oral administration of cordycepin or its azide derivative
- Format: in vivo, mice
- test.parameters: female, NIH Swiss, in vivo; mouse serum; after oral azide derivative 100 mg/kg; read-out: AUC0→∞ oral
measured.quantity: AUC(0-inf) (ng·h/mL)

Nc1ncnc2c1ncn2[C@@H]1O[C@H](CO)C[C@H]1O [Cordycepin, 3′-deoxyadenosine, reference compound]	1630

----------
- experiment.notes: in vivo
- test.parameters: female, NIH-Swiss, mouse, in vivo, iv, 20 mg/kg, t½
- Experimental: Animal studies. […] Chromatographic separations were performed using a Hypersil ODS column 150×4.5 mm, 5 μm particle size (Alltech Associates, Deerfield, Ill.) preceded by a guard column packed with 30-40 μm pellicular Perisorb RP-18. […] Eluants were monitored at a UV wavelength of 260 nm. […] Data analysis in vivo studies. Nucleoside concentration as a function of time data were analyzed by a non-compartmental technique. […] Relative brain exposure (re) was calculated from AUCbrain/AUCserum.
measured.quantity: half-life

O=c1[nH]cnc2c1ncn2[C@@H]1O[C@H](CO)C[C@@H]1F	24.6 min
